Tested on: MOLT-4 leukemia
Assay: NCI-60 one-dose screen, 48 h
Conditions: 10 µM unless noted
Protocol: Growth inhibition of the MOLT-4 human tumor cell line is measured as a screen for anti-cancer activity. Cells are grown in 96 well plates and exposed to the test compound for 48 hours. Compounds are tested at a single concentration, which is 10^-5 M for most compounds. The reported endpoint is percent growth (GI% or GIPRCNT), where numbers from 0 - 100% represent growth inhibition, and numbers from -100% - 0 represent cell death. For example, a value of 40 represents 60% growth inhibition. […]
The panel holds about 83,000 compounds, 20% with a hit somewhere; the sample as a whole holds those more often. Active and inactive are the calls of the source. Rule for the calls: active = growth percent below 10; inactive = the rest.
Assign a class; possible classes are active, inactive

compound_string=NC(=O)N/N=C/c1ccc(Br)o1 classification=inactive

Ask: Any idea what this test logged for COc1cc2cn3c4ccc(O)cc4nc(N)c3c2cc1OC ?
Reply: active

Ask: Any idea what this test logged for Nc1nonc1-c1nc2ccccc2n1CC(=O)Nc1ccc2c(c1)COC2=O ?
Reply: inactive

Ask: Any idea what this test logged for C=C(C[C@](O)(C(=O)/C=C/c1ccc(Cl)cc1)C(=O)OC)c1ccccc1 ?
Reply: inactive
